# Test system: SNB-75 CNS
# experimentSummary: NCI tumour cell line growth inhibition, 48 h
Reported TGI values follow for various molecules
measurementType: TGI

{"molecule": "CN(C)CCNC(=O)c1cccc2c1C(=O)c1ccccc1C2=O", "endpointValue": "> 100 µM"}
{"molecule": "N=c1oc2cc(O)ccc2cc1C(=O)Nc1ccccn1", "endpointValue": "> 100 µM"}
{"molecule": "COC(=O)CNC(=O)C(=O)c1c(O)c(O)c(C(C)C)c2cc(C)c(-c3c(C)cc4c(C(C)C)c(O)c(O)c(C(=O)C(=O)NCC(=O)OC)c4c3O)c(O)c12", "endpointValue": "8.5 µM"}
{"molecule": "Cc1cn(S(=O)(=O)c2ccccc2)c2c(OCc3ccccc3)cc([N+](=O)[O-])cc12", "endpointValue": "> 100 µM"}
{"molecule": "CC(C)(C)OC(=O)NC(CSCc1ccc(C(=O)c2ccccc2)cc1)C(=O)N1CCN(CCCCN2c3ccccc3Sc3cc(N=[N+]=[N-])ccc32)CC1 (stereo unspecified)", "endpointValue": "> 100 µM"}
{"molecule": "COc1ccc(-c2cc(=O)c3c(O)c(O)c(OC)cc3o2)cc1O", "endpointValue": "> 100 µM"}
{"molecule": "Cn1c(=O)nc2n(-c3ccc(Br)cc3)c3ccccc3nc-2c1=O", "endpointValue": "19.4 µM"}
{"molecule": "COP(=O)(OC)C(N)Cc1c[nH]c2ccccc12 (stereo unspecified)", "endpointValue": "> 100 µM"}
{"molecule": "Cc1cc(=O)[nH]c2cc(NC(=O)C(C)NC(=O)C(C)NC(=O)C(C)NC(=O)OC(C)(C)C)ccc12 (stereo unspecified)", "endpointValue": "> 15 µM"}
{"molecule": "O=C1c2ccccc2C(=O)c2c1ccc1conc21", "endpointValue": "20.5 µM"}
{"molecule": "Cc1cc2ncn(CC(=O)O)c2cc1C", "endpointValue": "> 100 µM"}

* * *

Reported GI50 values follow for various molecules
# Test system: SN12C renal
# experimentSummary: NCI tumour cell line growth inhibition, 48 h

{"molecule": "CN[C@@H](C)C(=O)N[C@H](C(=O)N1CCC[C@H]1c1nc(C(=O)c2ccc(F)cc2)cs1)C1CCCCC1", "GI50": "39.2 µM"}
{"molecule": "CN1CCN(C2=C(Cl)C(=O)c3ccccc3C2=O)CC1", "GI50": "1.61 µM"}
{"molecule": "COc1ccc(C2=C(c3ccc(OC)cc3)C(=O)OC2)cc1", "GI50": "7.68 µM"}
{"molecule": "COc1ccc(C2=Nn3c(nnc3-c3ccc(F)c(Cl)c3)SC2)cc1", "GI50": "5.53 µM"}
{"molecule": "COc1cc(/C=C/C(=O)c2c(C)n([O-])c3ccccc3[n+]2=O)cc(OC)c1OC", "GI50": "5.82 µM"}
{"molecule": "COc1ccc(-c2nc(NC(=O)CS(=O)(=O)c3ccc(F)cc3)sc2C)cc1", "GI50": "19 µM"}
{"molecule": "COc1ccc(-n2nc(C)c3c(Nc4ccc(NC(=O)Nc5cccc(C(F)(F)F)c5)cc4)ncnc32)cc1", "GI50": "1.79 µM"}
{"molecule": "O=C(CSSCC(=O)c1ccc(Cl)cc1)c1ccc(Cl)cc1", "GI50": "3.7 µM"}
{"molecule": "COc1ccc(CCN2CCCn3c2nc2ccccc2c3=O)cc1", "GI50": "1.1 µM"}
{"molecule": "N.N.N.N.N#N.N#N.[Cl-].[Os+6]", "GI50": "> 100 µM"}
{"molecule": "CCN1C(=O)N(CC)C2C1NN=c1s/c(=C3\\C(=O)Nc4ccccc43)c(=O)n12 (centres undefined)", "GI50": "0.6 µM"}
{"molecule": "O=C(O)CCCN1C(=O)/C(=C/C(Cl)=C/c2ccccc2)SC1=S", "GI50": "2.05 µM"}
{"molecule": "Nc1c(C(=O)c2cccc(-c3cccnc3)c2)cnn1-c1ccc(F)cc1", "GI50": "> 25 µM"}
{"molecule": "COc1ccc(/C=C\\c2cc(OC)c(OC)c(OC)c2)cc1NC(=O)/C=C/c1ccc(OC)c(OC)c1", "GI50": "5.43 µM"}
